meta.source: ChEMBL document CHEMBL1143810

log10 IC50 listing for selected molecules.
Test system: Plasmodium falciparum
Test: Antiplasmodial activity against Plasmodium falciparum FcB1
Type: functional, organism-based
Endpoint label: log10 IC50 (log10 of the value in µM)

[
  {
    "Compound": "CCCCCCOc1cc(-c2cc(=O)c3c(O)cc(OCC(=O)N4CCN(Cc5ccc(OC)c(OC)c5OC)CC4)cc3o2)ccc1OC",
    "Tgt": "Plasmodium falciparum",
    "Observed value": 0.59
  },
  {
    "Compound": "COc1ccc(-c2cc(=O)c3c(O)cc(OCC(=O)N4CCN(Cc5ccc(OC)c(OC)c5OC)CC4)cc3o2)cc1OC1CCCC1",
    "Tgt": "Plasmodium falciparum",
    "Observed value": 0.45
  },
  {
    "Compound": "CCOC(=O)COc1cc(-c2cc(=O)c3c(O)cc(OCC(=O)N4CCN(Cc5ccc(O)c(OC)c5OC)CC4)cc3o2)ccc1OC",
    "Tgt": "Plasmodium falciparum",
    "Observed value": -0.22
  },
  {
    "Compound": "CCOC(=O)COc1cc(-c2cc(=O)c3c(O)cc(OCC(=O)N4CCN(C)CC4)cc3o2)ccc1OC",
    "Tgt": "Plasmodium falciparum",
    "Observed value": 1.41
  },
  {
    "Compound": "CCOC(=O)COc1cc(-c2cc(=O)c3c(O)cc(OCC(=O)N4CC[N+]([O-])(Cc5ccc(OC)c(OC)c5OC)CC4)cc3o2)ccc1OC",
    "Tgt": "Plasmodium falciparum",
    "Observed value": 1.28
  },
  {
    "Compound": "CCOC(=O)COc1cc(-c2cc(=O)c3c(O)cc(OCCN4CCN(Cc5ccc(OC)c(OC)c5OC)CC4)cc3o2)ccc1OC",
    "Tgt": "Plasmodium falciparum",
    "Observed value": 0.63
  },
  {
    "Compound": "CCOC(=O)COc1cc(-c2cc(=O)c3c(O)cc(OCC(=O)N4CCN(Cc5ccc(OC)cc5)CC4)cc3o2)ccc1OC",
    "Tgt": "Plasmodium falciparum",
    "Observed value": 0.95
  },
  {
    "Compound": "COc1ccc(CN2CCN(C(=O)COc3ccc4c(=O)cc(-c5ccccc5)oc4c3)CC2)c(OC)c1OC",
    "Tgt": "Plasmodium falciparum",
    "Observed value": 1.11
  }
]

---

Examples of compounds with documented IC50 follow.
Tested on: Plasmodium falciparum
Assay: Antiplasmodial activity against Plasmodium falciparum D6
Assay type: functional, organism-based
Endpoint label: IC50

[
  {
    "Compound": "CCOC(=O)COc1cc(OCC(=O)N2CCN(Cc3ccc(OC)c(OC)c3OC)CC2)c2c(=O)cc(-c3ccc(OC)c(OCC(=O)OCC)c3)oc2c1",
    "Endpoint label": "IC50",
    "Observed value": "5.4 µM"
  },
  {
    "Compound": "CCOC(=O)COc1cc(-c2cc(=O)c3c(O)cc(OCC(=O)N4CCN(Cc5ccccc5)CC4)cc3o2)ccc1OC",
    "Endpoint label": "IC50",
    "Observed value": "9.5 µM"
  },
  {
    "Compound": "CCOC(=O)COc1cc(O)c2c(=O)cc(-c3ccc(OC)c(OCC(=O)N4CCN(Cc5ccc(OC)c(OC)c5OC)CC4)c3)oc2c1",
    "Endpoint label": "IC50",
    "Observed value": "6.2 µM"
  }
]
